tested on: SNB-19; experiment: NCI tumour cell line growth inhibition, 48 h
Active and inactive are the calls of the source. Cut-off read from the data, not from the text of the source: active = GI50 up to about 1.1 µM and inactive = higher.
parameter: GI50

Record CCCN(CCCCC(NC(C)=O)C(=O)NCc1ccccc1)C(=O)N(CCCl)N=O (stereo not given) ; system SNB-19; GI50 = 31.9 µM (inactive)

Record for "CCOC(=O)c1cc(-c2ccc(OC)c(OC)c2)cn1C" under target or system SNB-19: GI50 reported as > 10 µM (inactive)

// assay SNB-19, entry CCOC(=O)C1(N)CCc2[nH][nH]c(=O)c2C1 (stereo not given) , GI50 value = > 100 µM (inactive)

Observed GI50 on SNB-19, entry "Cc1ccc(/C=C/C(=O)C(C)(C)CN2CCCCC2)cc1" , equals 2.57 µM (inactive)

The compound CNCC(SC)c1ccc(O)c(O)c1 (stereo not given) on SNB-19: GI50 was > 100 µM (inactive)

Considering O=C1NC2NC3NC(=O)NC3NC2N1 (stereo not given) , its GI50 with SNB-19 was recorded as > 100 µM (inactive)

====

test system: NCI-H226; assay: NCI tumour cell line growth inhibition, 48 h
Calls of active or inactive are those of the source. Cut-off read from the data, not from the text of the source: active = GI50 up to about 1.1 µM and inactive = higher.
parameter: GI50

Worked cases, GI50 given:
| compound | GI50 |
| --- | --- |
| Cc1cc(S(=O)(=O)/N=C(\NN)Nc2ccc(Cl)cc2)c(S)cc1Cl | 16 µM (inactive) |
| Cc1n[nH]c(=O)n1N=C(c1ccccc1)c1ccccc1 | > 100 µM (inactive) |
| CC(=O)C1=C(C)N(c2ccc(C)cc2)C2(O)C3=C(C(=O)c4ccccc4C3=O)C(O)=CC12Cl (stereo not drawn) | 43 µM (inactive) |
| CCOP(=O)(OCC)C(c1ccccc1)N(C(=O)NC(F)(F)F)c1cccc(F)c1 (stereo not drawn) | > 100 µM (inactive) |
| Nc1c(-c2ccccc2[N+](=O)[O-])nc2ccccn12 | > 100 µM (inactive) |
| O=S(=O)(/N=c1\[nH]c(-c2cc(O)c(O)c(O)c2)cs1)c1ccc(Cl)cc1Cl | 50.4 µM (inactive) |
| Cc1nc2ccccc2c(=O)n1NC(=S)Nc1ccc(Cl)cc1[N+](=O)[O-] | > 10 µM (inactive) |
| NNC(=O)N/N=C1\C(=O)N(c2nccs2)C(=O)C(=O)C1c1nc2ccccc2s1 (stereo not drawn) | > 100 µM (inactive) |
| CC(C)/C(Cl)=N\OC(NC(=O)P(=O)(c1ccccc1)c1ccccc1)(C(F)(F)F)C(F)(F)F | 10.3 µM (inactive) |
| CCOC(=O)c1cc2cc(C)cc(C(=O)c3ccc([N+](=O)[O-])cc3)c2[nH]1 | > 100 µM (inactive) |

Record summary for CN1CCC(O)C(CNC23CC4CC(CC(C4)C2)C3)C1 (stereo not drawn) : reported GI50 = > 100 µM (inactive)

In plain terms, "C=C1[C@H](OC(=O)C(C)C)[C@]23CC4(O)[C@@H]5[C@@]6(C)CCC[C@]57C([C@@H]2C[C@@]1(O)[C@H](O)[C@@H]73)N4C6" has a documented GI50 of > 100 µM (inactive)

What the record says about CC1=C(C)CC2C(=O)N(c3cc(C(C)(C)C)ccc3C(C)(C)C)C(=O)C2C1 (stereo not drawn) : GI50 is > 100 µM (inactive)

"CN1CCC2(CC1)SC[C@H]1C(=O)N(c3ccc(Cl)cc3)C(=O)N12" yielded GI50 of > 100 µM (inactive)

# GI50 (compound: "O=C1CC[C@@]2(O)[C@H]3Cc4ccc(-c5cccc(O)c5)c5c4[C@@]2(CCN3CC2CC2)[C@H]1O5" ) is 29.3 µM (inactive)

GI50 reading for O=C1NC2NC3NC(=O)NC3NC2N1 (stereo not drawn) : > 100 µM (inactive)

// sample "Cc1ccc(/C=C/C(=O)C(C)(C)CN2CCCCC2)cc1" , its GI50 was 13.2 µM (inactive)

Memo: CNCC(SC)c1ccc(O)c(O)c1 (stereo not drawn) , reported GI50: > 100 µM (inactive)
